The values you see were collected from patent US20040048790A1.

- Assayed System: HLA-A*2402 (human)
- Experimental Protocol: competition vs 125I probe peptide, purified HLA
Quantity Name: IC50

Return reported IC50; argument: TYQGSYGFRF [p53.102.F10] 30 nM
